The origin of these recorded values is the supplement of paper PMC7411054.

System: HepG2-GM130-SQSTM1
experiment: phenotypically active (imaging signature differs from DMSO and reproducible) at any of 0.3-9 uM (binary (1 = active, 0 = inactive)); higher = active
conditionsUsed: treatment time: 24 h
Where a name gives a salt, the structure may show the parent alone.
measuredAttribute: phenotypically active
One number for each entry.

Example entries begin here.
NCC[C@H](O)C(=O)N[C@H]1C[C@@H](N)[C@H](O[C@H]2O[C@H](CN)[C@@H](O)[C@H](O)[C@H]2O)[C@@H](O)[C@@H]1O[C@H]1O[C@H](CO)[C@@H](O)[C@H](N)[C@H]1O [Amikacin hydrate] ... 0
O=C(CCCCCCC(=O)Nc1cccnc1)NO [Pyroxamide] ... 1
C[C@H]1[C@H]2CC[C@H]3[C@@H]4CC=C5C[C@@H](N(C)C)CC[C@]5(C)[C@H]4CC[C@]23CN1C [Conessine] ... 1

Consider the following items and state reported phenotypically active for each.
1. NC(=O)c1cccnc1 [Nicotinamide]
2. COc1ccc([C@@H]2Sc3ccccc3N(CCN(C)C)C(=O)[C@@H]2OC(C)=O)cc1 [diltiazem]

Key:
0
0

Could you report phenotypically active for every entry in the following list?
1. CC1(C(=O)O)CCC2(C)CCC3(C)C(=CC(=O)C4C5(C)CCC(OC6OC(C(=O)O)C(O)C(O)C6OC6OC(C(=O)O)C(O)C(O)C6O)C(C)(C)C5CCC43C)C2C1 (centres undefined) [Glycyrrhizic acid]
2. NC12CC3CC(CC(C3)C1)C2 [amantadine]
3. O=C([C@H](Cc1cccc(C(F)(F)F)c1)NS(=O)(=O)c1cc(F)c2c(c1)CCNC2)N1CCCC1 [(S)-PFI 2 hydrochloride]
4. COc1ccc(CCN(C)CCCC(C#N)(c2ccc(OC)c(OC)c2)C(C)C)cc1OC (centres undefined) [verapamil]
5. CC(=O)NCCCS(=O)(=O)O [acamprosate]
6. O=C(O)c1ccc(N2N=C(Cc3ccccc3)/C(=C/c3ccc(-c4ccccc4F)o3)C2=O)cc1

Key:
1: 0; 2: 0; 3: 0; 4: 0; 5: 0; 6: 0

For the 2 compounds below, give their phenotypically active values.
1. Cc1cc2sc(NC(=O)Cc3ccccc3)nc2cc1Cl
2. CC(=O)C1=C(O)[C@]2(C)C(=CC1=O)Oc1c(C(C)=O)c(O)c(C)c(O)c12 [(+)-Usnic acid]

Key:
0
0

List phenotypically active for every entry below, keeping the order given.
1. CO[C@H]1C=CO[C@@]2(C)Oc3c(C)c(O)c4c(O)c(c(/C=N/N5CCN(C)CC5)c(O)c4c3C2=O)NC(=O)C(C)=CC=C[C@H](C)[C@H](O)[C@@H](C)[C@@H](O)[C@@H](C)[C@H](OC(C)=O)[C@@H]1C [Rifampicin]
2. N#C/C(=C/c1ccc(O)c(O)c1)C(=O)NCCCCc1ccccc1
3. C#Cc1cccc(Nc2ncnc3cc(OCCOC)c(OCCOC)cc23)c1 [erlotinib]
4. COc1cc(C[C@H]2C(=O)OC[C@@H]2Cc2ccc(OC)c(OC)c2)ccc1O [Arctigenin]

Key:
[0, 1, 1, 1]

// input: 6 compounds below; output: phenotypically active for each
1. CC(C)(C)NC(=O)[C@@H]1CN(Cc2cccnc2)CCN1C[C@@H](O)C[C@@H](Cc1ccccc1)C(=O)N[C@H]1c2ccccc2C[C@H]1O [indinavir]
2. CSc1ccc(C(=O)c2[nH]c(=O)[nH]c2C)cc1 [Enoximone]
3. COCCc1ccc(OCC(O)CNC(C)C)cc1 (centres undefined) [metoprolol]
4. CC/C(=C(\CC)c1ccc(O)c(CN(CC)CC)c1)c1ccc(O)c(CN(CC)CC)c1
5. Cc1ccc2ccc(C(Nc3ccccc3)c3ccccc3)c(O)c2n1 (centres undefined)
6. CCCNC(C)C(=O)Nc1c(C)csc1C(=O)OC (centres undefined) [articaine]

Key:
0
0
0
1
0
0

Provide each entry's phenotypically active from the list below.
1. O=C(/C=C/c1ccc(O)c(O)c1)O[C@@H]1C[C@](O)(C(=O)O)C[C@@H](O)[C@H]1O [Chlorogenic acid]
2. COc1ccc(N2C(=O)CSC2c2cccc(Br)c2)c(OC)c1 (centres undefined)

Key:
0
1

The following compounds each have a reported value; give each one's phenotypically active.
1. CC(C)CNc1nc(-c2cccc3ncccc23)cn2c(-c3ccc(C(=O)NC4CC4)cc3)cnc12
2. CCCN[C@H]1CCc2nc(N)sc2C1 [pramipexole]
3. CC(C)(C#N)c1cc(Cn2cncn2)cc(C(C)(C)C#N)c1 [Anastrozole]
4. CC[C@]12CCCN3CCc4c(n(c5ccccc45)C(=O)C1)[C@@H]32 [Eburnamonine (-)]
5. CCCCCCCCCCNCCSSCc1ccc(Cl)cc1
6. NCCCC(O)(P(=O)(O)O)P(=O)(O)O [alendronate]

Key:
1
0
0
0
1
0

Below is a list of compounds. For each, state its recorded phenotypically active.
1. CN1[C@@H]2CC[C@H]1C[C@@H](OC(c1ccccc1)c1ccccc1)C2 [benztropine]
2. NC(=O)[C@@H](CCC(F)(F)F)N(Cc1ccc(-c2ncon2)cc1F)S(=O)(=O)c1ccc(Cl)cc1 [avagacestat]
3. N#C/C(=C/c1ccc(-c2cc(Cl)ccc2Cl)o1)C(=O)Nc1cccc2ncccc12

Key:
1. 0
2. 0
3. 0
